# Protocol text: background-corrected fluorescence of 3'-dye-labeled ssDNA relative to brightest sequence (3'-GCGCG) (fraction); higher = brighter dye fluorescence (less quenching)
# Condition notes: dye: Cy3 (3' terminal)
Measured background-corrected fluorescence of individual entries
The answer should be a number; do not append a unit.

Consider the worked cases shown below.
TTTTTGCAGCATGCTGATCATTTTTTTTTTTTTTTTTACG [GCATT]: 0.5
TTTTTGCAGCAGCAGCAGCATTTTTTTTTTTTTTTTTTTT: 0.489
TTTTTTGATCATGATCATGCTTTTTTTTTTTTTTTCGCGA [AGCGC]: 0.823

Query block: Value lookup for background-corrected fluorescence; key = TTTTTTGATGATGATCATGATTTTTTTTTTTTTTTCCCGC [CGCCC]
Result block: 0.51

Query block: Form field: reported background-corrected fluorescence of TTTTTTGCTCATGCGCATGCTTTTTTTTTTTTTTTAGATA [ATAGA]
Result block: 0.582

Query block: Find the recorded background-corrected fluorescence belonging to TTTTTGCAGCATGATGCTCATTTTTTTTTTTTTTTTTCAG [GACTT] and report it.
Result block: 0.506

Query block: Data request, read-out background-corrected fluorescence, for TTTTTTGATGATGCTGAGCATTTTTTTTTTTTTTTCCACT [TCACC]
Result block: 0.444

Query block: Need background-corrected fluorescence, item TTTTTTGCGCATGATCATGCTTTTTTTTTTTTTTTATCGA [AGCTA]
Result block: 0.635

Query block: Quick one: background-corrected fluorescence for TTTTTGCATGCTGATGATGATTTTTTTTTTTTTTTTACCC [CCCAT] ?
Result block: 0.408

Query block: What value of measured background-corrected fluorescence is listed for TTTTTGCATGATGCGCATGATTTTTTTTTTTTTTTTCATC [CTACT] ?
Result block: 0.406
